Give ELISA signal for every item shown.
Target: T1, cynomolgus monkey HVEM (cynomolgus monkey, UniProt A0A2K5W0R1 39-203); note: test concentration or dose not given here
T1 sequence: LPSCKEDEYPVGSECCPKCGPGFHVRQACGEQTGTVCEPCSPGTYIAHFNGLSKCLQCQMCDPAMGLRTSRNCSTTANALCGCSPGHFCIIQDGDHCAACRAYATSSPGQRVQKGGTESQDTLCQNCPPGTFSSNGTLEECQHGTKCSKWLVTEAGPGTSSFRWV
Test: ELISA
Could you respond with only the numeric value?

(Q) I have this binder here, Ab_028 (H5S15-33A29A) (antibody, V domains shown, also called Ab_28) VH: QVQLKQSGPGLVQPSQSLSITCTVSGFSLTTYGVHWVRQSPGKGLEWLGVIWSGGNTDYNPAFISRLSISKDNSKSQVFFKMNTLQASDTAIYYCARRGYNKGYAMDYWGQGTSFTVSS VL: EIVLTQSPALMTASPGEKVTITCSVSSTISSRNLHWYQQKSEASPKPWIYGTSNLASGVPVRFSGSGSGTSYSLTISSMEAEDAATYYCQQWNSYPLTFGSGTKLEIK , and I need its recorded ELISA signal.
(A) 2.19

(Q) Reported ELISA signal for Ab_017 (H5S14-18A16A) (antibody, V domains shown, also called Ab_17) VH: EVQLVETGGGLVQPKGSLKLSCAASGFTFNTNAMNWVRQAPGKGLEWVARIRSKSNNYATYYADSVKDRFTISRDDSQSMLYLQMNNLKTEDTAMYYCVREGGYGNYPYFDYWGQGTTLTVSS VL: SIVMTQTPKFLLVSAGDRVTITCKASQSVSNDVAWYQQKPGQSPKLLIYYASNRYTGVPDRFTGSGYGTDFTFTISTVQAEDLAVYFCQQDYSSPWTFGGGTKLEIK : what is it?
(A) 0.06

(Q) Item Ab_080 (H5S20-27A23A) (antibody, V domains shown, also called Ab_80) VH: EVQLQQSGTVLARPGASVKMSCKASGYSFTSYWMHWLKQRPGQGLEWIGAIYPGNSDTVFNQKFKGKAKLTAVTSATTAYMELSSLTNEDSAVYYCTKEPRTIEGAWFTYWGQGTLVTVSA VL: DIVMTQSPSSLTVPAGEKVTMSCKSSQSLLNSENQKNYLTWYQQKPGQPPKLLIYWASTRESGVPDRFTGSGSGTDFTLTISSVQAEDLAVYYCQSDYSYPLTFGAGTKLELK has what recorded ELISA signal?
(A) 2.26
